The values you see were collected from PubChem BioAssay (NCI).

Test system: OVCAR-4 ovarian
Test: NCI-60 one-dose screen, 48 h (100 = growth as untreated, 0 = no growth, -100 = all killed)
Conditions: 10 µM unless noted
Procedure: Growth inhibition of the OVCAR-4 human tumor cell line is measured as a screen for anti-cancer activity. Cells are grown in 96 well plates and exposed to the test compound for 48 hours. Compounds are tested at a single concentration, which is 10^-5 M for most compounds. The reported endpoint is percent growth (GI% or GIPRCNT), where numbers from 0 - 100% represent growth inhibition, and numbers from -100% - 0 represent cell death. For example, a value of 40 represents 60% growth inhibition. […]
The panel holds about 83,000 compounds, 20% with a hit somewhere; the sample as a whole holds those more often. The source made the active and inactive calls. How the source made its calls: active means growth percent below 10; inactive means the rest.
growth: recorded values

Example entries begin here.
compound="CC(Cc1ccco1)C(=O)NC(N)=O (stereo unspecified)" test_result="108% (inactive)"
compound=Fc1ccc(Nc2ccc3c(OCCCN4CCOCC4)cccc3n2)cc1F test_result="79% (inactive)"
compound=Cc1cc2nc3c4cc(N)ccc4n(CCN(C)C)c3nc2cc1C test_result="14.6% (inactive)"
compound="CC(C)(C)c1[nH]nc2c1C(c1cc3ccccc3[nH]c1=O)Nc1cc(C(=O)OCc3ccccc3)ccc1N2 (stereo unspecified)" test_result="54.3% (inactive)"

stdin: Tell me the measured growth of N#Cc1c(-c2ccco2)nc2c(c(-c3ccccc3)nn2-c2ccccc2)c1-c1ccc(O)cc1 , please.
stdout: 77.7% (inactive)

stdin: I am curious: what growth value has been reported for CCc1nnc(NC(=O)c2ccoc2COc2ccccc2)s1 ?
stdout: 92.2% (inactive)
